pKd reference
target: T1, murine pro-myostatin (mouse, UniProt O08689 25-376, biotinylated (in the SPR assay)); assay: SPR Biacore 8K, biotin-antigen captured
T1 construct: also called proGDF8 (mouse); mouse pro-myostatin
pKd: −log10 of the molar value.
assay-readout: pKd

1) Ab133 (antibody, human IgG4 S228P, kappa, V domains shown, human IgG4 in the EM experiment; also called Ab133 Human IgG4) VH: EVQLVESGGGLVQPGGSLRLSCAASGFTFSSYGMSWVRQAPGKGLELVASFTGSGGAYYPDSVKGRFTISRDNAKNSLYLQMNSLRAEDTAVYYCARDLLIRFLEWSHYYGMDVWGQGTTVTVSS VL: DIVMTQSPLSLPVTPGEPASISCRSSQSLLHSSGHNFLHWYLQKPGQSPQLLIYEVSNRVSGVPDRFSGSGSGTDFTLKISRVEAEDVGVYYCQQQTQYPGTFGGGTKVEIKR	10.27
2) Ab112 (antibody, human IgG4 S228P, kappa, V domains shown) VH: QVQLVQSGAEVKKPGASVKVSCKVSGGTFGIYAIHWVRQAPGKGLEWMGGTIPVFGTAIYAQKFQGRVTMTEDTSTDTAYMELSSLKSEDTAVYYCASLTGIAAAGTHPARGGMDVWGQGTTVTVSS VL: DIQMTQSPSSVSASVGDRVTITCRASPSISSYLAWYQQKPGKAPKLLIYAASRLQSGVPSRFSGSGSGTDFTLTISSLQPEDFANYYCQEYLSFPLTFGGGTKVEIKR	9.13
3) Ab114 (antibody, human IgG4 S228P, kappa, V domains shown) VH: QVQLVQSGAEVKKPGASVKVSCKVSGGTFRSYTIHWVRQAPGKGLEWMGGMNPSSGHTIYAQKFQGRVTMTEDTSTDTAYMELSSLKSEDTAVYYCARGLDYGEGYYYYGMDVWGQGTTVTVSS VL: DIQMTQSPSSVSASVGDRVTITCRASQGISESLAWYQQKPGKAPKLLIYSASSLESGVPSRFSGSGSGTDFTLTISSLQPEDFANYYCQQGYSSPPYTFGGGTKVEIKR	8.20

Where these numbers come from: patent US20260209325A1
